ASSAY_OVERVIEW: Multiple-dose plasma PK of IV Compound A in patients with NT2
Assay type: in vivo, human
ASSAY_SETUP: human, plasma, intravenous, 112 mg, Cmpd A 112 mg; Day 1; read-out: AUCinf Geo mean
PROPERTY_MEASURED: AUC(0-inf) (ng·h/mL)
One number for each entry, in ng·h/mL.

Documented AUC(0-inf) of COC(=O)N1CCC[C@H](NS(C)(=O)=O)[C@@H]1CO[C@H]1CC[C@@H](c2ccccc2)CC1 : 1500

* * *

ASSAY_OVERVIEW: Plasma PK of Compound A after a single 9-hour IV infusion in sleep-deprived healthy male subjects
Format: in vivo, human
ASSAY_SETUP: male, human, plasma, iv, 44 mg, 44 mg 9-h IV infusion; 1 h post infusion start; read-out: Plasma concentration (Mean)
PROPERTY_MEASURED: concentration at 1 h

Documented concentration at 1 h of COC(=O)N1CCC[C@H](NS(C)(=O)=O)[C@@H]1CO[C@H]1CC[C@@H](c2ccccc2)CC1 : 64.4 ng/mL

* * *

ASSAY_OVERVIEW: Multiple-dose plasma PK of IV Compound A in patients with NT2
Format: in vivo, human
ASSAY_SETUP: human, plasma, intravenous, 112 mg, Cmpd A 112 mg; Day 7; read-out: CL Mean (converted)
PROPERTY_MEASURED: clearance (mL/min)
Answers are plain numbers, in mL/min.

Documented clearance of COC(=O)N1CCC[C@H](NS(C)(=O)=O)[C@@H]1CO[C@H]1CC[C@@H](c2ccccc2)CC1 : 1240

* * *

ASSAY_OVERVIEW: Plasma PK of Compound A after a single 9-hour IV infusion in sleep-deprived healthy male subjects
Assay type: in vivo, human
ASSAY_SETUP: male, human, plasma, iv, 44 mg, 44 mg [LD] single 9-hour IV infusion; read-out: tmax (Median)
PROPERTY_MEASURED: Tmax (h)
Numbers only, in h.

Documented Tmax of COC(=O)N1CCC[C@H](NS(C)(=O)=O)[C@@H]1CO[C@H]1CC[C@@H](c2ccccc2)CC1 : 9

* * *

ASSAY_OVERVIEW: Plasma PK of Compound A after a single 9-hour IV infusion in sleep-deprived healthy male subjects
Assay type: in vivo, human
ASSAY_SETUP: male, human, plasma, iv, 112 mg, 112 mg 9-h IV infusion; 6 h post infusion end; read-out: Plasma concentration (Median)
PROPERTY_MEASURED: concentration at 6 h (ng/mL)
Numbers only, in ng/mL.

Documented concentration at 6 h of COC(=O)N1CCC[C@H](NS(C)(=O)=O)[C@@H]1CO[C@H]1CC[C@@H](c2ccccc2)CC1 : 23.4

* * *

ASSAY_OVERVIEW: Multiple-dose plasma PK of IV Compound A in patients with NT2
Format: in vivo, human
ASSAY_SETUP: human, plasma, intravenous, 44 mg, Cmpd A 44 mg; Day 1
PROPERTY_MEASURED: Tmax (h)
One number for each entry, in h.

Documented Tmax of COC(=O)N1CCC[C@H](NS(C)(=O)=O)[C@@H]1CO[C@H]1CC[C@@H](c2ccccc2)CC1 : 3.88

* * *

ASSAY_OVERVIEW: Single-dose plasma PK of Compound A in subjects with OSA
Format: in vivo, human
ASSAY_SETUP: human, plasma, intravenous, 112 mg, 112 mg single dose, subjects with OSA, plasma, mean (PK set); read-out: Vz
PROPERTY_MEASURED: Vd
Field note: include the unit after the figure.

Documented Vd of COC(=O)N1CCC[C@H](NS(C)(=O)=O)[C@@H]1CO[C@H]1CC[C@@H](c2ccccc2)CC1 : 319 L
